Substrate: CC(=O)C=O
Assay: purified protein
Assay type: biochemical, Arabidopsis thaliana
Settings: true substrate is the hemithioacetal of MGO and GSH (preformed 30 min; HTA concentration calculated with Kdiss 3.0 mM), 1.7 mM GSH, 0.5 mM Ni2+, 100 mM MOPS pH 7.0, 25 °C
property name: Km (µM)
The answer is to be given in µM; state only the numeric part.

Query :: # query: Km of entry GLXI;2 (Col-0 GLXI;2) (Arabidopsis thaliana; F278I) (protein, monomer; two domains, active site 2 (His89, Glu137, Gln150, Glu201)) MAEASDLLEWPKKDNRRFLHVVYRVGDLDRTIEFYTEVFGMKLLRKRDIPEEKYSNAFLGFGPETSNFVVELTYNYGVSSYDIGTGFGHFAISTQDVSKLVENVRAKGGNVTREPGPVKGGGSVIAFVKDPDGYTFELIQRGPTPEPFCQVMLRVGDLDRAIKFYEKALGMRLLRKIERPEYKYTIGMMGYAEEYESIVLELTYNYDVTEYTKGNAYAQIAIGTDDVYKSGEVIKIVNQELGGKITREAGPLPGLGTKIVSFLDPDGWKTVLVDNKDILKELE
Result :: 311

---
Query :: # query: Km of entry GLXI;2 (Col-0 GLXI;2) (Arabidopsis thaliana; F278I/K229N) (protein, monomer; two domains, active site 2 (His89, Glu137, Gln150, Glu201)) MAEASDLLEWPKKDNRRFLHVVYRVGDLDRTIEFYTEVFGMKLLRKRDIPEEKYSNAFLGFGPETSNFVVELTYNYGVSSYDIGTGFGHFAISTQDVSKLVENVRAKGGNVTREPGPVKGGGSVIAFVKDPDGYTFELIQRGPTPEPFCQVMLRVGDLDRAIKFYEKALGMRLLRKIERPEYKYTIGMMGYAEEYESIVLELTYNYDVTEYTKGNAYAQIAIGTDDVYNSGEVIKIVNQELGGKITREAGPLPGLGTKIVSFLDPDGWKTVLVDNKDILKELE
Result :: 302

Query :: # query: Km of entry GLXI;2 (Col-0 GLXI;2) (Arabidopsis thaliana) (protein, monomer; two domains, active site 2 (His89, Glu137, Gln150, Glu201)) MAEASDLLEWPKKDNRRFLHVVYRVGDLDRTIEFYTEVFGMKLLRKRDIPEEKYSNAFLGFGPETSNFVVELTYNYGVSSYDIGTGFGHFAISTQDVSKLVENVRAKGGNVTREPGPVKGGGSVIAFVKDPDGYTFELIQRGPTPEPFCQVMLRVGDLDRAIKFYEKALGMRLLRKIERPEYKYTIGMMGYAEEYESIVLELTYNYDVTEYTKGNAYAQIAIGTDDVYKSGEVIKIVNQELGGKITREAGPLPGLGTKIVSFLDPDGWKTVLVDNKDFLKELE
Result :: 297

These measurements were taken from paper PMC12490080.
